Reported Activity by item:
# ASSAY NAME: Antioxidant activity assessed as inhibition of microsomal lipid peroxidation at 200 ug/mL
# Format: functional
# Set-up: scale not given: the % may be the effect or the level left
Number in %, nothing else.

Below are worked cases with known answers.
> print(dat)
                                   compound  unit.label  value.observed
1  Cc1c(C)c2c(c(C)c1O)CC[C@@](C)(CCC[C@H](C)CCC[C@H](C)CCCC(C)C)O2           %           -52.1
2  CC1=C(C(=O)OC(C)(C)C)C(c2ccccc2)C=CN1c1ccc(Cl)cc1 (stereo not drawn)           %           -26.6

For the next question, use this compound.
CC1=C(C(=O)OC(C)(C)C)C(c2ccccc2)C=CN1c1ccccc1 (stereo not drawn) yielded Activity of -42.1
